# tested_target: Thrombin (Homo sapiens)
# protocol_notes: Biochemical inhibition assay, fluorogenic substrate FSR-AMC
# test_settings: read-out: Thrombin IC50; Thrombin 9.8·10^-5 NIH unit/mL; 30 min incubation with inhibitor; FSR-AMC 20 µM; Tris pH 7.5
pIC50: −log10 of the molar value.
Exercise: for every item that follows, state its recorded pIC50.

Q) Report pIC50, nothing else, for this compound: "Cc1nn(-c2ccccc2)c(C)c1NC(=O)COC(=O)Cc1cccc(F)c1"
A) < 3.70

Q) Report pIC50, nothing else, for this compound: "Cc1nn(-c2ccccc2)c(C)c1NC(=O)COC(=O)Cc1ccccc1Br"
A) < 3.70

Q) Report pIC50, nothing else, for this compound: "COc1ccc(CC(=O)OCC(=O)Nc2c(C)nn(-c3ccccc3)c2C)cc1"
A) < 3.70

Q) Report pIC50, nothing else, for this compound: "COc1ccc(NC(=O)COC(=O)Cc2c(C)[nH]c3ccccc23)cc1"
A) < 3.70

Q) Report pIC50, nothing else, for this compound: "Cc1nn(-c2ccccc2N)c(C)c1NC(=O)COC(=O)Cn1c(C)cc2ccccc21"
A) < 3.70

Q) Report pIC50, nothing else, for this compound: "Cc1nn(-c2ccccc2)c(C)c1NC(=O)COC(=O)Cc1ccsc1Cl"
A) < 3.70

Q) Report pIC50, nothing else, for this compound: "Cc1nn(-c2ccccc2)c(C)c1NC(=O)COC(=O)Cc1ccccc1I"
A) < 3.70

Q) Report pIC50, nothing else, for this compound: "COc1cccc(NC(=O)COC(=O)Cc2c(C)[nH]c3ccccc23)c1"
A) < 3.70

Q) Report pIC50, nothing else, for this compound: "Cc1[nH]c2ccccc2c1CC(=O)OCC(=O)Nc1ccccc1Cl"
A) < 3.70

Q) Report pIC50, nothing else, for this compound: "Cc1nn(-c2ccccc2)c(C)c1NC(=O)COC(=O)Cc1ccsc1"
A) < 3.70

Q) Report pIC50, nothing else, for this compound: "COc1ccccc1CC(=O)OCC(=O)Nc1c(C)nn(-c2ccccc2)c1C"
A) < 3.70

Q) Report pIC50, nothing else, for this compound: "Cc1nn(-c2ccc(N)cc2)c(C)c1NC(=O)COC(=O)Cn1c(C)cc2ccccc21"
A) < 3.70

Q) Report pIC50, nothing else, for this compound: "Cc1nn(-c2ccccc2)c(C)c1NC(=O)COC(=O)Cn1ccc2c(F)cccc21"
A) < 4.30

Q) Report pIC50, nothing else, for this compound: "Cc1ccc(NC(=O)COC(=O)Cc2c(C)[nH]c3ccccc23)cc1"
A) < 3.70

Q) Report pIC50, nothing else, for this compound: "COc1cccc(CC(=O)OCC(=O)Nc2c(C)nn(-c3ccccc3)c2C)c1"
A) < 3.70

Q) Report pIC50, nothing else, for this compound: Cc1nn(-c2ccccc2)c(C)c1NC(=O)COC(=O)C(C)c1c[nH]c2ccccc12 (centres unmarked)
A) < 3.70

Q) Report pIC50, nothing else, for this compound: "Cc1nn(-c2ccccc2)c(C)c1NC(=O)COC(=O)Cc1ccccc1N=[N+]=[N-]"
A) < 3.70

Q) Report pIC50, nothing else, for this compound: "Cc1nn(-c2ccccc2)c(C)c1NC(=O)COC(=O)Cn1c(C(C)C)cc2ccccc21"
A) < 4.30

Q) Report pIC50, nothing else, for this compound: "Cc1[nH]c2ccccc2c1CC(=O)OCC(=O)Nc1cnn(-c2ccccc2)c1"
A) < 4.30

Q) Report pIC50, nothing else, for this compound: "Cc1cc2ccccc2n1CC(=O)OCC(=O)Nc1ccc(N2CCOCC2)cc1"
A) < 4.30

Q) Report pIC50, nothing else, for this compound: "Cc1nn(-c2ccccc2)c(C)c1NC(=O)COC(=O)Cc1cn(C)c2ccccc12"
A) < 3.70

Q) Report pIC50, nothing else, for this compound: "Cc1[nH]c2ccccc2c1CC(=O)OCC(=O)Nc1ccc(N2CCOCC2)cc1"
A) < 3.70

Q) Report pIC50, nothing else, for this compound: "Cc1nn(-c2ccccc2)c(C)c1NC(=O)COC(=O)Cc1ccco1"
A) < 3.70

Q) Report pIC50, nothing else, for this compound: "Cc1nn(-c2ccccc2)c(C)c1NC(=O)COC(=O)Cc1ccccc1Cl"
A) < 4.30

Q) Report pIC50, nothing else, for this compound: "COc1ccccc1NC(=O)COC(=O)Cc1c(C)[nH]c2ccccc12"
A) < 3.70

Q) Report pIC50, nothing else, for this compound: Cc1nn(-c2ccccc2)c(C)c1NC(=O)COC(=O)C(C)c1c(C)[nH]c2ccccc12 (centres unmarked)
A) < 3.70

Q) Report pIC50, nothing else, for this compound: "Cc1cc2ccccc2n1CC(=O)OCC(=O)Nc1ccccc1"
A) < 4.30

Q) Report pIC50, nothing else, for this compound: "Cc1ccccc1CC(=O)OCC(=O)Nc1c(C)nn(-c2ccccc2)c1C"
A) < 3.70

Q) Report pIC50, nothing else, for this compound: "Cc1nn(-c2ccccc2)c(C)c1NC(=O)COC(=O)Cc1coc2ccccc12"
A) < 4.30

Q) Report pIC50, nothing else, for this compound: "Cc1nn(-c2ccccc2)c(C)c1NC(=O)COC(=O)Cc1cc(Cl)sc1Cl"
A) < 3.70

Q) Report pIC50, nothing else, for this compound: "C=CCOc1ccccc1NC(=O)COC(=O)Cc1ccccc1I"
A) < 3.70

Q) Report pIC50, nothing else, for this compound: "Cc1nn(-c2ccccc2)c(C)c1NC(=O)COC(=O)Cc1ccccc1OCc1ccccc1"
A) < 3.70

Q) Report pIC50, nothing else, for this compound: "Cc1ccc(-n2nc(C)c(NC(=O)COC(=O)Cn3c(C(F)(F)F)cc4ccccc43)c2C)cc1"
A) < 3.70

Q) Report pIC50, nothing else, for this compound: "CC(=O)Nc1cccc(CC(=O)OCC(=O)Nc2c(C)nn(-c3ccccc3)c2C)c1"
A) < 3.70

Q) Report pIC50, nothing else, for this compound: "Cc1nn(-c2ccccc2)c(C)c1NC(=O)COC(=O)Cn1c(C(F)(F)F)cc2ccccc21"
A) < 3.70

====

# tested_target: KLK6 (Homo sapiens)
# protocol_notes: Biochemical inhibition assay, fluorogenic substrate FSR-AMC
# test_settings: read-out: KLK6 IC50; KLK6 5 nM (produced in insect cells); 30 min incubation with inhibitor; FSR-AMC 20 µM; Tris pH 7.5
assay_readout: IC50 (µM)
Quick note: give the figure in µM, leave out the unit.

Q) Report IC50, nothing else, for this compound: "CC(=O)Nc1cccc(CC(=O)OCC(=O)Nc2c(C)nn(-c3ccccc3)c2C)c1"
A) 31.4

Q) Report IC50, nothing else, for this compound: "Cc1[nH]c2ccccc2c1CC(=O)OCC(=O)NC1CCCC1"
A) 78.7

Q) Report IC50, nothing else, for this compound: "Cc1[nH]c2ccccc2c1CC(=O)OCC(=O)NC(C)(C)C"
A) 166

Q) Report IC50, nothing else, for this compound: "Cc1nn(-c2ccccc2)c(C)c1NC(=O)COC(=O)Cc1cc(Cl)sc1Cl"
A) 2.33

Q) Report IC50, nothing else, for this compound: "Cc1cc(C)n(CC(=O)OCC(=O)Nc2c(C)nn(-c3ccccc3)c2C)n1"
A) 109

====

Exercise: for every item that follows, state its recorded IC50.
# tested_target: Trypsin (Homo sapiens)
# protocol_notes: Biochemical inhibition assay, fluorogenic substrate FSR-AMC
# test_settings: read-out: Trypsin IC50; Trypsin 0.88 ng/mL; 30 min incubation with inhibitor; FSR-AMC 20 µM; Tris pH 7.5

Q) Quote Trypsin (Homo sapiens) IC50 for entry "Cc1nn(-c2ccccc2)c(C)c1NC(=O)COC(=O)Cc1ccc(N)cc1" .
A) > 50 µM

Q) Quote Trypsin (Homo sapiens) IC50 for entry "COc1cccc(CC(=O)OCC(=O)Nc2c(C)nn(-c3ccccc3)c2C)c1" .
A) > 200 µM

Q) Quote Trypsin (Homo sapiens) IC50 for entry "Cc1nn(-c2ccccc2)c(C)c1NC(=O)COC(=O)Cn1ccc2c(F)cccc21" .
A) > 50 µM

Q) Quote Trypsin (Homo sapiens) IC50 for entry "Cc1nn(-c2ccccc2)c(C)c1NC(=O)COC(=O)Cc1ccccc1C(F)(F)F" .
A) > 200 µM

Q) Quote Trypsin (Homo sapiens) IC50 for entry "Cc1nn(-c2ccccc2)c(C)c1NC(=O)COC(=O)Cc1ccccc1Cl" .
A) > 50 µM

Q) Quote Trypsin (Homo sapiens) IC50 for entry "C=CCOc1ccccc1NC(=O)COC(=O)Cc1ccccc1I" .
A) > 200 µM

Q) Quote Trypsin (Homo sapiens) IC50 for entry "Cc1cc(C)n(CC(=O)OCC(=O)Nc2c(C)nn(-c3ccccc3)c2C)n1" .
A) > 200 µM

Q) Quote Trypsin (Homo sapiens) IC50 for entry "Cc1nn(-c2ccccc2)c(C)c1NC(=O)COC(=O)Cc1cc(Cl)sc1Cl" .
A) > 200 µM

Q) Quote Trypsin (Homo sapiens) IC50 for entry "Cc1nn(-c2ccccc2)c(C)c1NC(=O)COC(=O)Cc1cccc(F)c1" .
A) > 200 µM

Q) Quote Trypsin (Homo sapiens) IC50 for entry "Cc1nn(-c2ccccc2)c(C)c1NC(=O)C1(OC(=O)Cn2c(C)cc3ccccc32)CC1" .
A) > 50 µM

Q) Quote Trypsin (Homo sapiens) IC50 for entry "Cc1nn(-c2ccccc2)c(C)c1NC(=O)COC(=O)Cc1c(C)[nH]c2ccccc12" .
A) 27.4 µM

Q) Quote Trypsin (Homo sapiens) IC50 for entry "CCc1cc2ccccc2n1CC(=O)OCC(=O)Nc1c(C)nn(-c2ccccc2)c1C" .
A) 29.3 µM

Q) Quote Trypsin (Homo sapiens) IC50 for entry "COc1ccccc1NC(=O)COC(=O)Cc1c(C)[nH]c2ccccc12" .
A) 28.7 µM

Q) Quote Trypsin (Homo sapiens) IC50 for entry "Cc1nn(-c2ccccc2)c(C)c1NC(=O)COC(=O)Cc1ccccc1N=[N+]=[N-]" .
A) > 200 µM

Q) Quote Trypsin (Homo sapiens) IC50 for entry "Cc1nn(-c2ccccc2)c(C)c1NC(=O)COC(=O)Cn1c(C(F)(F)F)cc2ccccc21" .
A) > 200 µM

Q) Quote Trypsin (Homo sapiens) IC50 for entry "Cc1cccc(NC(=O)COC(=O)Cc2c(C)[nH]c3ccccc23)c1" .
A) > 200 µM

Q) Quote Trypsin (Homo sapiens) IC50 for entry "Cc1nn(-c2ccccc2)c(C)c1NC(=O)COC(=O)Cn1c(C(C)C)cc2ccccc21" .
A) > 50 µM
